tested_target: T1, full-length human GPC3 (human, UniProt P51654 25-554)
T1 construct: On CHO (DXB11) or SK-HEP-1 (SK-03) transfectants; also used here for the GPC3 on the hepatoma lines HepG2 and HuH-7; also called human glypican 3
T1 sequence (P51654 25-554 limits assumed): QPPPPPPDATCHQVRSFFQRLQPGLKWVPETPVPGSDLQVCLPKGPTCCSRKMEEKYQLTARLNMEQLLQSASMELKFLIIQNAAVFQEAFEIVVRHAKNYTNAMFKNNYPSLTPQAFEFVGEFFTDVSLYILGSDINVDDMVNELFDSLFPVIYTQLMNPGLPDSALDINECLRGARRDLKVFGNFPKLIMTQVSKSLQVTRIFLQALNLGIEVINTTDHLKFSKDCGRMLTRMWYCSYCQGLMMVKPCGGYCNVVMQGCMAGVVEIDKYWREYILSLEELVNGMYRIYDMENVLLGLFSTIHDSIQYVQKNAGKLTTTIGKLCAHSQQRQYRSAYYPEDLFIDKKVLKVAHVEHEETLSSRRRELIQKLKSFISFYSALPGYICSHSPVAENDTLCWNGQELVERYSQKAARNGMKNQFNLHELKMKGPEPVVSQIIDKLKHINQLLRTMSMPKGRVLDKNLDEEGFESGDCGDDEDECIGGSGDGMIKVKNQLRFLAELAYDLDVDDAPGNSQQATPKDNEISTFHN
experiment_notes: flow cytometry, antibody at 5 µg/mL, HuH-7 cells
value_type: FACS X-mode value of the histogram

Example results:
M10D2 (antibody, V domains shown, Mouse monoclonal from hybridoma) VH: QVQLQQPGAELVKPGASVKLSCKASGYTFTSYWMHWVKQRPGQGLEWIGEIDPSDSYTYYNQKFRGKATLTVDKSSNTAYMQLSSLTSEDSAVYYCSRSNLGDGHYRFPAFPYWGQGTLVTVSA VL: DIVLTQSPATLSVTPGDRVSLSCRASHSISNFLHWYPQKSHESPRLLIKYASQSISGIPSRFSGNGSGTDFTLSINSVETEDFGMYFCQQSNIWSLTFGAGTKLELK
3
L9G11 (antibody, V domains shown, Mouse monoclonal from hybridoma) VH: QVQLQQPGAELVKPGASVKLSCKASGYTFTSYWMHWVKQRPGQGLEWIGTIDPSDSETHYNLQFKDTATLTVDKSSSTAYMQLSSLTSEDSAVYYCIRGAFYSSYSYWAWFAYWGQGTLVTVSA VL: DIVLTQSPTSLAVSLGQSVTISCRASESVEYYGTSLMQWYQQKPGQPPKLLIYGASNVESGVPARFSGSGSGTDFSLNIHPVEEDDIAMYFCQQSRKVPYTFGSGTKLEIK
4
M11F1 (antibody, V domains shown, Mouse monoclonal from hybridoma) VH: QVTLKESGPGILQPSQTLSLTCSFSGFSLSIYGMGVGWIRQPSGKGLEWLANIWWNDDKYYNSALKSRLTISKDTSNNQVFLKISSVDTADTATYYCAQIGYFYFDYWGQGTTLTVSS VL: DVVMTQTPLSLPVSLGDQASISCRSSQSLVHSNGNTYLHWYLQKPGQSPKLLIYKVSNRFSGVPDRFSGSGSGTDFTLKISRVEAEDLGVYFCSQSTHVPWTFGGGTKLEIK
2

Next:
Enquiry: Endpoint output: FACS X-mode value of the histogram of M5B9 (antibody, V domains shown, Mouse monoclonal from hybridoma) VH: EVQLQQSGTVLARPGASVKMSCKASGYTFTGYWMHWVKQRPGQGLEWIGAIYPGNSDTNYNQKFKGKAKLTAVTSASTAYMELSSLTNEDAAVYHCTRSGDLTGGLAYWGQGTLVTVSA VL: DIVMTQAAFSNPVTLGTSASISCRSSKSLLHSNGITYLYWFLQKPGQSPQLLIYQMSNLASGVPDRFSSSGSGTDFTLRISRVEAEDVGVYYCAQNLELPYTFGSGTKLEIK . Value?
Return: 2
